Recorded values, source ChEMBL document CHEMBL5053510.

- Measurement Target: Cytochrome P450 1A2 (Homo sapiens, UniProt P05177)
- Sequence (P05177 whole entry): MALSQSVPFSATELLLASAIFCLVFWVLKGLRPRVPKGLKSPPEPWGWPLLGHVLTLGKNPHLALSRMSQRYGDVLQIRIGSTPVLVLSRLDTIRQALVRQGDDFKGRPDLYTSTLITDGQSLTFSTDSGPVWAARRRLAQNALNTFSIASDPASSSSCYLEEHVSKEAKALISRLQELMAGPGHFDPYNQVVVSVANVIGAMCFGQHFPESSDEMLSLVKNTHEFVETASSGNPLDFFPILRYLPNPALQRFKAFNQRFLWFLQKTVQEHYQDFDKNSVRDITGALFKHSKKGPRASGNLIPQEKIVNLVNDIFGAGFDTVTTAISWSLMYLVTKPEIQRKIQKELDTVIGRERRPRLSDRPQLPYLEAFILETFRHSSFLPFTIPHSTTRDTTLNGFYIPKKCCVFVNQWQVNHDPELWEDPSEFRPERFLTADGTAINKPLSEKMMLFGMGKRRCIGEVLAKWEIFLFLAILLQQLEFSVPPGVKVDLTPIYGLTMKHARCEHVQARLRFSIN
pIC50: −log10 of the molar value.
Readout Label: pIC50

Consider the molecule Nc1nc(-c2cccc(-n3ccc4cc(C5CC5)cc(F)c4c3=O)c2CO)c2cc(C3=CCN(C4COC4)CC3)[nH]c2n1 [MILREBRUTINIB] . State its measured pIC50.
< 5.00
